# tested-system: T1, human FLT3 (human, UniProt P36888 27-541, limits assumed)
# T1 construct: Soluble analyte hFLT3 in SPR; also called hFLT3; huFlt3
# T1 sequence: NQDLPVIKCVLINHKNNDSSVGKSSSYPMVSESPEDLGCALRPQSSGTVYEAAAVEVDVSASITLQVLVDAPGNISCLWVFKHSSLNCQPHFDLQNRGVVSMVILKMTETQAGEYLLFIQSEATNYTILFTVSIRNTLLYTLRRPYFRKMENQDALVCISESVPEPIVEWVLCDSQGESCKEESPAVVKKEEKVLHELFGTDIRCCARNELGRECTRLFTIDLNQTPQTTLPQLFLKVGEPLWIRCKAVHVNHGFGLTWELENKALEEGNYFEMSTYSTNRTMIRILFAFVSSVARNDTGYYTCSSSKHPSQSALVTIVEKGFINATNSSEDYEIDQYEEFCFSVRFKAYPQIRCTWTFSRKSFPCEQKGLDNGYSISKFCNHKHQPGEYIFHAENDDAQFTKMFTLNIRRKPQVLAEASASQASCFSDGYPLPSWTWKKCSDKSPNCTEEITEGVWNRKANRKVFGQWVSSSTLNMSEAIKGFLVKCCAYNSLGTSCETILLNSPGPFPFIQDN
# assay-details: SPR Biacore T200, 37C; scFv format
property-measured: kon

INSERT INTO results (binder, observed_result) VALUES
  ('P5F7 (scFv format) (scFv) scFv: EVQLLESGGGLVQPGGSLRLSCAASGFTFSSYAMNWVRQAPGKGLEWVSSISGGGRSTYYADSVKGRFTISRDNSKNTLYLQMNSLRAEDTAVYYCARDLSPSDVGWGYGFDIWGQGTLVTVSSGGGGSGGGGSGGGGSEIVLTQSPATLSLSPGERATLSCRASQSVSSNLAWYQQKPGQAPRLLIYDTFTRATGIPARFSGSGSGTDFTLTISRLEPEDFAVYYCQQYGSSPPTFGQGTRLEIK', '189000 M⁻¹ s⁻¹'),
  ('P7F9 (scFv format) (scFv) scFv: EVQLLESGGGLVQPGGSLRLSCAASGFTFSSYAMSWVRQAPGKGLEWVSAIGGSGGSTYYADSVKGRFTISRDNSKNTLYLQMNSLRAEDTAMYYCARDYYAFSDPAYGGMDVWGQGTLVTVSSGGGGSGGGGSGGGGSNFMLTQPHSVSESPGKTVTISCTRSSGSIASNYVQWYQQKPGQAPVLVVYDDSDRPSGIPERFSGSNSGNTATLTISRVEAGDEADYYCQVWDSSSDHWVFGGGTKLTVL', '87000 M⁻¹ s⁻¹');
